# Test system: SARS-CoV-2
# PROTOCOL NOTES: Antiviral activity against SARS-CoV-2 2019-nCoV/USA_WA1/2020 infected in human Caco-2 cells assessed as reduction in viral replication pre-treated with compound for 30 mins followed by viral infection and measured after 48 hrs
# Format: functional, organism-based
# ASSAY CONTEXT: Severe acute respiratory syndrome coronavirus 2, 2019-nCoV/USA_WA1/2020, Caco-2
OBSERVATION TYPE: pEC50
// returns pEC50 (minus log10 of molar concentration), number only

Determine from records and report pEC50 for `CCCCCCCCCCCCCCCCCCOC[C@@H](COP(=O)(O)OC[C@H]1O[C@@](C#N)(c2ccc3c(N)ncnn23)[C@H](O)[C@@H]1O)OCc1ccccc1` 6.85

----------
# Tested on: SARS-CoV-2
# PROTOCOL NOTES: Antiviral activity against SARS-CoV-2 2019-nCoV/USA_WA1/2020 infected in African green monkey Vero E6 cells assessed as reduction in viral replication pre-treated with compound for 30 mins followed by viral infection and measured after 48 hrs
# Assay type: functional, organism-based
# ASSAY CONTEXT: Severe acute respiratory syndrome coronavirus 2, 2019-nCoV/USA_WA1/2020, Vero C1008
OBSERVATION TYPE: EC50 (nM)
# value in nM; strip the unit string

// fetch EC50 for `CCCCCCCCCCCCCCCCCCOC[C@@H](COP(=O)(O)OC[C@H]1O[C@@](C#N)(c2ccc3c(N)ncnn23)[C@H](O)[C@@H]1O)OCc1ccccc1` ; system: SARS-CoV-2 140

----------
# PROTOCOL NOTES: Cytotoxicity against African green monkey Vero E6 cells
# Type: toxicity, cell-based, Vero C1008
# ASSAY CONTEXT: chlorocebus sabaeus
Listed here are compounds together with their documented CC50.
// units = µM; emit number, no label

// worked examples, CC50 included
Give the reported value of CC50 for this record: `CCCCCCCCCCCCCCCCCCOCCOP(=O)(O)CO[C@H](C)Cn1cnc2c(N)ncnc21` 53.8

Output CC50 of `C[C@H](Cn1cnc2c(N)ncnc21)OCP(=O)(O)OCCOCCCCCCCCCCCCCCCCC(F)(F)F` 85.1

Next, consider the following compound.
Please report the measured CC50 for `CCCCCCCCCCCCCCCCCCCCOP(=O)(O)CO[C@H](C)Cn1cnc2c(N)ncnc21` 13.2

----------
IC50 reference
# TESTED ON: UniProt:Q72547
Write the value in nM as a bare number.

For orientation, consider the following solved cases.
Identify measured IC50 corresponding to `CCCCCCCCCCCCCCCCCCCCOP(=O)(O)CO[C@H](C)Cn1cnc2c(N)ncnc21` 127

Provide one value: measured IC50 of `CCCCCCCCCCCCCCCCSCCCOP(=O)(O)CO[C@H](C)Cn1cnc2c(N)ncnc21` 10

Please look at this compound and report its IC50: `C[C@H](Cn1cnc2c(N)ncnc21)OCP(=O)(O)OCCOCCCCCCCCCCC#Cc1ccc(S(F)(F)(F)(F)F)cc1` 10

Answer with reported IC50 of `CCCCCCCCCCCCCCCCCOCCOP(=O)(O)CO[C@H](C)Cn1cnc2c(N)ncnc21` 3

Continuing:
# return recorded IC50 for input `CCCCCCCCCCCCCCCOCCCCOP(=O)(O)CO[C@H](C)Cn1cnc2c(N)ncnc21` 30

----------
# TESTED ON: Human immunodeficiency virus type 1 reverse transcriptase (Human immunodeficiency virus 1, UniProt Q72547)
OBSERVATION TYPE: IC50 (nM)
Use nM as the unit, but write only the number.

Provide measured IC50 value, entry: `CCCCCCCCCCCCCCOCCCCCOP(=O)(O)CO[C@H](C)Cn1cnc2c(N)ncnc21` 52

Return IC50 (reported value) for this compound: `C[C@H](Cn1cnc2c(N)ncnc21)OCP(=O)(O)OCCOCCCCCCCCCCCCc1ccc(S(F)(F)(F)(F)F)cc1` 20

Quick one: give measured IC50 for `C[C@H](Cn1cnc2c(N)ncnc21)OCP(=O)(O)OCCOCCCCCCCCCCCCCC#CC(F)(F)F` 16

For C[C@H](Cn1cnc2c(N)ncnc21)OCP(=O)(O)O [TENOFOVIR ANHYDROUS] , write its IC50. 1600

Item `CCCCCCCCOCCCCCOCCCCCOP(=O)(O)CO[C@H](C)Cn1cnc2c(N)ncnc21` : provide IC50 4000

----------
# PROTOCOL NOTES: Cytotoxicity against African green monkey Vero E6 cells
# Type: toxicity, cell-based, Vero C1008
# ASSAY CONTEXT: chlorocebus sabaeus
Reported CC50 is given for each of the following compounds.

Determine its reported CC50: `C[C@H](Cn1cnc2c(N)ncnc21)OCP(=O)(O)OCCOCCCCCCCCCCCCCCCC(F)(F)F` > 100 µM

Please list CC50 recorded for the compound `CCCCOCCCCCOCCCCCOCCCOP(=O)(O)CO[C@H](C)Cn1cnc2c(N)ncnc21` > 100 µM

Specify reported CC50 for the compound shown: `CCCCCCCCOCCCCCOCCCCCOP(=O)(O)CO[C@H](C)Cn1cnc2c(N)ncnc21` > 100 µM

Given `C[C@H](Cn1cnc2c(N)ncnc21)OCP(=O)(O)OCCOCCCCCCCCCCC#Cc1ccc(S(F)(F)(F)(F)F)cc1` , respond with its CC50. > 100 µM

For the compound `CCCCCCCCCCCCCCOCCCCCOP(=O)(O)CO[C@H](C)Cn1cnc2c(N)ncnc21` , give its reported CC50. > 100 µM

// Input: `CCCCCCCCCCCCCCCCCOCCOP(=O)(O)CO[C@H](C)Cn1cnc2c(N)ncnc21` . Output its CC50 only. 69.6 µM

Specify reported CC50 for the compound shown: `CCCCCCCCCCCCCCCCSCCCOP(=O)(O)CO[C@H](C)Cn1cnc2c(N)ncnc21` 49.8 µM

Give reported CC50 value for `C[C@H](Cn1cnc2c(N)ncnc21)OCP(=O)(O)OCCOCCCCCCCCCCCCCCC#CC(F)(F)F` > 100 µM

Could you now look at the following compound, please?
Let me know recorded CC50 for C[C@H](Cn1cnc2c(N)ncnc21)OCP(=O)(O)O [TENOFOVIR ANHYDROUS] , thanks. 35.4 µM

----------
Catalogue of half-life values
# PROTOCOL NOTES: Metabolic stability in human liver microsomes assessed as half life
# Assay type: ADME, Microsome
# ASSAY CONTEXT: liver microsomes
Your answer should be a plain number; it is taken to be in min.

Please supply the value of reported half-life for the item `CCCCCCCCOCCCCCOCCCCCOP(=O)(O)CO[C@H](C)Cn1cnc2c(N)ncnc21` 12

# return recorded half-life for input `CCCCCCCCCCCCCCCOCCCCOP(=O)(O)CO[C@H](C)Cn1cnc2c(N)ncnc21` 48

Output half-life of `CCCCCCCCCCCCCCCCCCCCOP(=O)(O)CO[C@H](C)Cn1cnc2c(N)ncnc21` 49

Annotate the compound `CCCCCCCCCCCCCCCCCCOCCOP(=O)(O)CO[C@H](C)Cn1cnc2c(N)ncnc21` with its measured half-life. 105

Give the measured half-life for `CCCCCCCCCCCCCCCCCOCCOP(=O)(O)CO[C@H](C)Cn1cnc2c(N)ncnc21` 35

New cases:
Note down half-life recorded for `CCCCCCCCCCCCCCOCCCCCOP(=O)(O)CO[C@H](C)Cn1cnc2c(N)ncnc21` 31

----------
# PROTOCOL NOTES: Cytotoxicity against African green monkey Vero E6 cells
# Type: toxicity, cell-based, Vero C1008
# ASSAY CONTEXT: chlorocebus sabaeus
Quick reference: CC50 of the listed items.

Recorded results for 2 compounds are shown here.
Given the compound `C[C@H](Cn1cnc2c(N)ncnc21)OCP(=O)(O)OCCOCCCCCCCCCCCCc1ccc(S(F)(F)(F)(F)F)cc1` , write its reported CC50. > 100 µM

# return recorded CC50 for input `C[C@H](Cn1cnc2c(N)ncnc21)OCP(=O)(O)OCCOCCCCCCCCCCCCCC#CC(F)(F)F` > 100 µM

---
For the compound `CCCCCCCCCCCCCCCOCCCCOP(=O)(O)CO[C@H](C)Cn1cnc2c(N)ncnc21` , give its measured CC50 value. > 100 µM

----------
# TESTED ON: Human immunodeficiency virus type 1 reverse transcriptase (Human immunodeficiency virus 1, UniProt Q72547)
The following compounds are listed with their measured IC50 values.
Report only the number, with the unit nM understood.

Please report the measured IC50 for `CCCCOCCCCCOCCCCCOCCCOP(=O)(O)CO[C@H](C)Cn1cnc2c(N)ncnc21` 32000

---
Return reported IC50. Input compound: `C[C@H](Cn1cnc2c(N)ncnc21)OCP(=O)(O)OCCOCCCCCCCCCCCCCCCC(F)(F)F` 8

Read the entry `C[C@H](Cn1cnc2c(N)ncnc21)OCP(=O)(O)OCCOCCCCCCCCCCCCCCC#CC(F)(F)F` and write its reported IC50. 10

Answer with the recorded IC50 of `C[C@H](Cn1cnc2c(N)ncnc21)OCP(=O)(O)OCCOCCCCCCCCCCCCCCCCC(F)(F)F` only. 10

Give the value of IC50 reported for the following: `CCCCCCCCCCCCCCCCCCOCCOP(=O)(O)CO[C@H](C)Cn1cnc2c(N)ncnc21` 3
